tested on: DU-145 prostate; experiment: NCI tumour cell line growth inhibition, 48 h; in the data active = GI50 below about 0.43 µM; inactive = the rest
Output constraint: value belongs to True = active, False = inactive

[
  {
    "Compound": "N=C(N)/N=C(\\N)c1c(-c2cc(O)ccc2O)nc2sccn12",
    "Category label": "False"
  },
  {
    "Compound": "COc1ccc(-c2nsc3c2NC(=O)CC3c2ccc(F)cc2)cc1 (centres undefined)",
    "Category label": "False"
  },
  {
    "Compound": "CC(C)CCSC1=CC(=O)c2ccccc2C1=O",
    "Category label": "False"
  },
  {
    "Compound": "COc1cc2c(F)nccc2cc1C(=O)N[C@@H](c1ccc(F)c(Cl)c1)[C@@H]1C[C@@H](O)CN1",
    "Category label": "False"
  }
]

Please let me know the test result on file for COC(=O)[C@H]1C(=O)[C@@]2(C)[C@H]([C@H](OC(=O)c3ccccc3)[C@]3(O)C[C@H](OC(=O)[C@H](O)[C@@H](NC(=O)c4ccc(F)cc4)c4ccccc4)C(C)=C1C3(C)C)[C@]1(OC(C)=O)CO[C@@H]1C[C@@H]2O . True

Please let me know the test result on file for O=C1/C=C/[C@@H](O)[C@@H]2C[C@@H](O)C[C@H]2/C=C/CCC[C@H](CCc2ccc(C(F)(F)F)cc2)O1 . False

Please let me know the test result on file for NCCCCCCCCn1c2c(c3ccccc3c1=O)C(=O)c1ccccc1-2 . False

Please let me know the test result on file for CCCCCCCCCCCCNC(=O)[C@H]1CSC(c2cc3ccccc3s2)N1 (some centres undefined) . False

Please let me know the test result on file for COc1ccccc1/C=C/C(=O)c1c(O)cc2occc2c1OC . False
